Each item that follows carries a reported pIC50.
- Tested on: LNCaP
- testMethodNotes: Cytotoxicity against human LNCAP cells by MTT assay
- Assay type: functional, cell-based
pIC50 (log units): -log10 of the concentration in mol/L.

Previously resolved entries follow.
# compound, pIC50
measured = [
    ("CC1=C[C@H]2[C@@H]3C(=O)[C@]4(C[C@@H]2O)C[C@](O)(Cc2ccc(cc2)O[C@H]2[C@H]3[C@@H]1[C@]1(C)C[C@H](C)C[C@H](C)[C@@H]21)NC4=O [PYRROSPIRONE B]", 4.69),
    ("CC1=C[C@H]2[C@@H]3C(=O)[C@]4(C[C@H]2O)C[C@](O)(Cc2ccc(cc2)O[C@H]2[C@H]3[C@@H]1[C@]1(C)C[C@H](C)C[C@H](C)[C@@H]21)NC4=O [PYRROSPIRONE A]", 4.75),
    ("C=C[C@@H]1C=C(C)[C@H]2[C@@H]3[C@H](Oc4ccc(cc4)C[C@@]4(O)C[C@H](C(=O)N4)C(=O)[C@@H]13)[C@@H]1[C@@H](C)C[C@@H](C)C[C@]12C [PYRROSPIRONE D]", 4.93),
]

# next compound below
Query: Identify pIC50 associated with the compound C=C[C@@H]1C=C(C)[C@H]2[C@@H]3[C@H](Oc4ccc(cc4)C[C@@]4(O)C=C(C(=O)N4)C(=O)[C@@H]13)[C@@H]1[C@@H](C)C[C@@H](C)C[C@]12C [PYRROSPIRONE C]
Reply: 6.32
